# Tested System: Gal3S(b1-4)Glc
# Test Details: glycan array binding signal (z-score within array); higher = stronger binding
# Measurement Context: glycan notation: IUPAC condensed, linker removed
The full list was thinned out, with the strongest signals kept by preference.
Attribute Measured: glycan array binding signal (z-score)

- Binder: "MAL-II (Maackia amurensis), P93248 (protein) ATSNSKPTQVLLATFLTFFFLLLNNVNSSDELSFTINNFVPNEADLLFQGEASVSSTGVLQLTRVENGQPQQYSVGRALYAAPVRIWDNTTGSVASFSTSFTFVVKAPNPTITSDGLAFFLAPPDSQIPSGRVSKYLGLFNNSNSDSSNQIVAVEFDTYFGHSYDPWDPNYRHIGIDVNGIESIKTVQWDWINGGVAFATITYLAPNKTLIASLVYPSNQTSFIVAASVDLKEILPEWVRVGFSAATGYPTQVETHDVLSWSFTSTLEANSDAATENNVHIARYTA"
  glycan array binding signal (z-score): 1.81
- Binder: "DCIR (Homo sapiens), Q9UMR7 (protein) MTSEITYAEVRFKNEFKSSGINTASSAASKERTAPHKSNTGFPKLLCASLLIFFLLLAISFFIAFVIFFQKYSQLLEKKTTKELVHTTLECVKKNMPVEETAWSCCPKNWKSFSSNCYFISTESASWQDSEKDCARMEAHLLVINTQEEQDFIFQNLQEESAYFVGLSDPEGQRHWQWVDQTPYNESSTFWHPREPSDPNERCVVLNFRKSPKRWGWNDVNCLGPQRSVCEMMKIHL"
  glycan array binding signal (z-score): -0.426

Okay, now this binder:
Memo: AAA (Anguilla anguilla), Q7SIC1 (protein) VIPEGYTQENVAVRGKATQSAQLRGEHAANSEASNAIDGNRDSNFYHGSCTHSSGQANPWWRVDLLQVYTITSVTITNRGDCCGERISGAEINIGQHLASNGVNNPECSVIGSMATGETKTFHCPAPMIGRYVVTYLPTSESLHLCEVEVNVDKPAAA , reported glycan array binding signal (z-score): -0.117
